Hello, the source for this data is patent US20080102065A1, in case you need it.

- Assayed system: T1, huEpoR protein (soluble human erythropoietin receptor) (human, UniProt P19235 25-250, limits assumed)
- T1 construct: also called soluble huEpoR; biotinylated huEpoR
- T1 sequence (looked up): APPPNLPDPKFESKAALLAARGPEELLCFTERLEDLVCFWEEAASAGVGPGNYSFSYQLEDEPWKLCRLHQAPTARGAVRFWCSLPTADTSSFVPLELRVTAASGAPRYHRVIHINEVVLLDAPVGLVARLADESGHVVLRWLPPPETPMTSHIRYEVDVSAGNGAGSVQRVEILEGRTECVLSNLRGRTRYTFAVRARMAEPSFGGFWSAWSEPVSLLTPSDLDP
- Experiment: SPR, Biacore T100; scFv-Fc captured on anti-human IgG Fc CM5 chip, EpoR as analyte; 1:1 fit;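 also: measured at 25 °C in HBS-EP buffer with 0.1 mg/ml BSA, flowed at 50 µl/min, 1 min association then dissociation (10 min human, 5 min cyno EpoR)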
Can you tell me log10(kon) for the items I'm about to list?
// stored as log10 of kon expressed in M⁻¹ s⁻¹

For orientation, consider the following solved cases.
Mxb 318 (clone 318 scFv-Fc protein) (Fc fusion, Tested as scFv-Fc (maxibody) with an Fc derived from human IgG1) VH: QVQLVESGGGLVQPGGSLRLSCAVSGFTFSKYWMTWVRQAPGKGLEWVANIKPDGSEKYYVESVKGRFTISRDNAKNSVYLQMNSVRAEDTAVYYCARVSRGGSFSDWGQGTLVTVSS VL: QSVLTQPPSASGSPGQSVTISCTGTSSDVGGYNYVSWYQQHPGRAPKLIIYEVSKRPSGVPDRFSGSKSGNTASLTVSGLQADDEADYYCNSYAGSIYVFGSGTKVTVL ... 5.82
Mxb 13 (clone 13 scFv-Fc protein) (Fc fusion, Tested as scFv-Fc (maxibody) with an Fc derived from human IgG1) VH: QVQLQQSGGGVVQPGRSLRLSCAASGFTFSDYAMHWVRQAPGKGLEWVAVISNHGKSTYYADSVKGRFTISRDNSKHMLYLQMNSLRADDTALYYCARDIALAGDYWGQGTLVTVSA VL: DIQMTQSPSSLSASVGDRVTITCRASQSISSYLNWYQQLPGKVPKLLIYGASKLQSGVPSRFSGSGSGTDFTLTISSLQPEDFATYYCLQDYNYPLTFGPGTRLEIK ... 4.74
Mxb 295 (clone 295 scFv-Fc protein) (Fc fusion, Tested as scFv-Fc (maxibody) with an Fc derived from human IgG1) VH: EVQLVESGGGLVQPGGSLRLSCAASGFTFSSYAMSWVRQAPGKGLEWVSGISGSGSSEGGTYYADSVKGRFTLSRDNSKNTLYLQMNSLRAEDTALYYCVKDRPSRYSFGYYFDYWGRGTLVTVSS VL: LPVLTQPPSVSVSPGQTASIACSGNKLGDKYVSWYQQKPGQSPLLVIYQDTKRPSGIPERFSGSNSGNTATLTISGTQAMDEADYYCQAWDSSTDVVFGGGTKLTVL ... 4.26
Mxb 307 (clone 307 scFv-Fc protein) (Fc fusion, Tested as scFv-Fc (maxibody) with an Fc derived from human IgG1) VH: EVQLVESGGGLVQPGGSLRLSCAVSGFTFSKYWMTWVRQAPGKGLEWVANIKPDGSEKYYVESVKGRFTISRDNAKNSVYLQMNSVRAEDTAVYYCARVSRGGSFSDWGQGTMVTVSS VL: QSVLTQPPSASGSPGQSVTISCTGTSSDVGGYNYVSWYQQHPDKAPRLMIYDVNKRPSGVPDRFSGSKSGNTASLTVSGLQAEDEAHYYCNSYAGSNNWVFGGGTQLTVL ... 6.36

Input: Identify measured log10(kon) associated with Mxb 16 (clone 16 scFv-Fc protein) (Fc fusion, Tested as scFv-Fc (maxibody) with an Fc derived from human IgG1) VH: QVQLQESGPGLVKPSETLSLTCTVSGGYINNYYWSWIRQPPGKGLEWIGYIHYSGSTYYNPSLKSRVTISEDTSKNQFSLKLSSATAADTAVYYCARVGYYYDSSGYNLAWYFDLWGRGTLVTVSA VL: SSELTQDPAVSVALGQTVRITCQGDNLRSYSATWYQQKPGQAPVLVLFGENNRPSGIPDRFSGSKSGDTAVLTITGTQTQDEADYYCTSRVNSGNHLGVFGPGTQLTVL
Output: 4.81
